# ASSAYED SYSTEM: BGL (Boletopsis grisea lectin), S48K mutant (Boletopsis grisea, UniProt A0A1L2F5J1, S48K)
# Construct: full-length BGL ORF expressed in E. coli
# Sequence (A0A1L2F5J1 entry or part of it S48K): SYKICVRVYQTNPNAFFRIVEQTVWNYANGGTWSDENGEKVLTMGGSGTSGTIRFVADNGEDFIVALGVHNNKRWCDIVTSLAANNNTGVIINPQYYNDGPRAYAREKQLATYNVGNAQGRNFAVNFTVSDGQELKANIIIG
# EXPERIMENT SUMMARY: SPR (Biacore […]), equilibrium fit to […] model

COMPOUND: CC(=O)N[C@H]1C(O)O[C@H](CO)[C@@H](O)[C@@H]1O (stereo partly shown)
Kd / µM: 1010

---

# ASSAYED SYSTEM: BGL (Boletopsis grisea lectin), H71E mutant (Boletopsis grisea, UniProt A0A1L2F5J1, H71E)
# Construct: full-length BGL ORF expressed in E. coli
# EXPERIMENT SUMMARY: SPR (Biacore […]), equilibrium fit to […] model

COMPOUND: CC(=O)N[C@H]1C(O)O[C@H](CO)[C@@H](O)[C@@H]1O (stereo partly shown)
ASSAYED SYSTEM: BGL (Boletopsis grisea lectin), H71E mutant (Boletopsis grisea, UniProt A0A1L2F5J1, H71E)
Kd [mM]: 2.33

---

# ASSAYED SYSTEM: BGL (Boletopsis grisea lectin), G49N mutant (Boletopsis grisea, UniProt A0A1L2F5J1, G49N)
# Construct: full-length BGL ORF expressed in E. coli
# Sequence (A0A1L2F5J1 entry or part of it G49N): as the sequence (A0A1L2F5J1 entry or part of it S48K) above
# EXPERIMENT SUMMARY: SPR (Biacore […]), equilibrium fit to […] model
READOUT: Kd (µM)

MOLECULE: CC(=O)N[C@H]1C(O)O[C@H](CO)[C@@H](O)[C@@H]1O (stereo partly shown)
READOUT: Kd
REPORTED: 910
